Target: ATP-sensitive inward rectifier potassium channel 1 (Homo sapiens) (UniProt P48048)
Sequence (P48048 whole entry, looked up): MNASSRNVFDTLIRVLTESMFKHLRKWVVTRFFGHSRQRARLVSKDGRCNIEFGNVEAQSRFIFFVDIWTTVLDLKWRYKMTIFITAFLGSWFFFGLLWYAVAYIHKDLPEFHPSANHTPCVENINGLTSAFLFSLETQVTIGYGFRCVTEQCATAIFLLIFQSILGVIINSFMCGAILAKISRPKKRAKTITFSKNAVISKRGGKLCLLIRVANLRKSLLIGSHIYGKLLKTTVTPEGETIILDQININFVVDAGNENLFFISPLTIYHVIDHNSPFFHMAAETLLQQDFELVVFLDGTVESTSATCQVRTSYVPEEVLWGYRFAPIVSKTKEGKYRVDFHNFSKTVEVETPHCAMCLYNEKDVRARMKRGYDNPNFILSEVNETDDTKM
Assay: ROMK potassium channel modulators, primary screen, cell-based, thallium flux, MLSMR library (AID 1918);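 also: B-score of the F/F0 ratio slope over 7 to 12 s after thallium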
Settings: Tet-inducible ROMK, thallium flux fluorescence; at 10 µM; actives lie on both sides
Among all 130,000 compounds or so, about 2,500 (1.9%) were called active. Only a selection was taken, and actives are over-represented in it overall.
Measured B-score of individual entries

molecule | B-score
CCCOc1ccc(C(=O)NCCc2ccccc2)cc1 | 0.056
CSc1cccc(NC(=S)N(C(C)C)C(C)c2ccccn2)c1 (stereo unspecified) | -0.872
Cc1ccc(S(=O)(=O)C2(S(=O)(=O)c3ccc(C)cc3)CCCC2)cc1 | 3.4
Cc1ccc(S(=O)(=O)N(C)C2(C)CCS(=O)(=O)C2)cc1 (stereo unspecified) | 1.47
OCC1(Cc2ccccc2C(F)(F)F)CCN(Cc2cccc3cnccc23)CC1 | -2.15
COc1cccc(NC(=S)N(Cc2ccc(C)cc2)Cc2ccccn2)c1 | 0.0921
